Assay: yeast display, Sf9 membrane polyspecificity reagent, FACS + sequencing; frameworks hold sequencing errors
metric name: polyreactivity (PSR sort gate)

- QVQLGESGGGLVQAGGSLRLSCAASGRTFYWYTMGWYRQAPGKESELVAAISTRGVRTYYADSVKGRFTISRDNAKNTVYLQMNSLKPADTAVYYCNNYVAYDYWGQGTQVTVSS: low polyreactivity
- QVHLVESGGGLVQEGGSLLLSCAASGSIFQIYTMGRYRQAPGKERELVAAISSSVSTNYADSVKGRFTISRDNAKNTVYLQMHTLKPEDTAVYYCNRDDYNTADRDASGYWGQGTQVTVSS: low polyreactivity
- QVQLVESGGGLVQAGRSLRLSSAASGSTFYYNPMGWYRQAPGKERELVAAISGGDSTYYADSVKGRFTISRDNAKNTVYLQMNSMKPEDTAVYYCAAASRRRSDGRRYGYWGQGTQVTVSS: high polyreactivity
- QVQLVESGGGLVQAGGSHRLSCAASGRTFPGNAMGWYRQAPGKERELVAAISWSGTRTYYADSVKGRFTISRDNAKNTVYLQMNSLKPEDTAVYYCNVVVKGAWDYYPYDYWGQGTQVTVSS: high polyreactivity
- QVQLVESGGGLVQAGGSLRLSCAASGSIFKGYALGWYRQAPGKERELVAAITYSGGGTYYADSVKGRFTISRDNAKNTVYLQMNSLKPEDTAVYYCNADRYYPDDLSDGVGTYDYWGQGTQVTVSS: low polyreactivity
- QVQLVESGGGLVQAGGSLRLSCAASGSIFGTYAKGWYRQAPGKERELVAAISKRGSTTSYADSVKGRFTISRDNAKNTVYLQMNSLKPEDTAVYYCAALTRNSGGYGSWGQGTQVTVSS: high polyreactivity
- QVQLVESGGGLVQAGGSLRLSCAASGRTFVRYTMGWYRQAPGKERELVAAISGSGSSTFYADSVKGRFTISRDNAKNTVYLQMNSLKPVDTAVYYCAARVRRVARDPYDYWGQGTQVTVSS: high polyreactivity
- QVQLVESGGGLVQAGGSLRLSCAASGSTFVYYAMGWYRQAPGKERELVAAISWSGTRTYYADSVKGRFTISRDNAKNTVYLQMNSLKPEDTAVYYCAARLRANQVKLYYWGQGTQVTVSS: high polyreactivity
- QVQLVESGGGLVQAGGSLRLSCAASGSTFYRNAMGWYRQAPGKEREFVAAISFRGGGTYADSVKGRFTISRDNAKNTVYLQMNSLKPEDTAVYYCAADYSVYWLDYGYWGQGTQVTVSS: low polyreactivity
- QVQLVESGGGLVQAGGSLRLSCAASGINFFGKYAMGWYRQAPGKERELVAAISWSGGRTYYADSVKWRFTISRDNAKNTVYLQMNSLKPEDTAVYYCAVYPRDAERYGYCGQGTQVTVSS: high polyreactivity
- QVQLVESGGGLVQAGGSLRLSCAASGSIFKQYVMGWYRQAPGKERELVAAISRGGNTYYADSVKGRFTISRDNAKNTVYLQMNSLKPEDTAVYYCAAVYGGRAVPYYSWGQGTQVTVSS: high polyreactivity
